test: qHTS for differential inhibitors of proliferation of Plasmodium falciparum line 3D7 (AID 1876); details: P. falciparum 3D7 proliferation inhibition; series mostly up to 28.7 µM
Results filed as inconclusive are left out. Active and inactive are the calls of the source. Calls come from the whole dose curve; as a rule, active = well fitted curve in the direction sought with a large enough effect; inconclusive = small, poorly fitted or top-dose-only effect, or another doubt; inactive = no such curve, though single readings can be large or run the other way.
Your answer must be one of the following: active, inactive

Check the results log: what was the call for CCCCCCCCCCCCCCCC(=O)NCCO ? active

Please indicate how the test categorized CNCCCC1c2ccccc2C=Cc2ccccc21 . active

Could you kindly confirm the outcome this assay logged for CC(=O)OCC(=O)[C@@]1(O)CC[C@H]2[C@@H]3CCC4=CC(=O)CC[C@]4(C)[C@H]3C(=O)C[C@@]21C ? inactive

What did this assay record as the result for NC(N)=NCCC[C@H](N)C(=O)O ? inactive

How did this test come out for Cc1cc(N)c2ccccc2[n+]1CCCCCCCCCC[n+]1c(C)cc(N)c2ccccc21 ? active

* * *

tested on: CP247; experiment: qHTS profiling for inhibitors of Plasmodium falciparum proliferation (AID 504749); note: nearly all actives have a fitted effect of over 60% in size; conditions: P. falciparum in erythrocytes, SYBR Green DNA, 72 h; series mostly up to 28.7 µM
Results filed as inconclusive are left out. Active and inactive are the calls of the source. Calls follow the shape of the dose curve; as a rule, active = well fitted inhibition curve with a large enough effect; inconclusive = small, poorly fitted or top-dose-only effect; inactive = flat fitted curve, though single readings scatter.
Entry note: the call must match one of active, inactive

Tell me the recorded outcome of this test for CC1(C)CO[C@@H](CC(=O)O)CN1 . inactive

Please indicate how the test categorized Cc1cc(N)c2ccccc2[n+]1CCCCCCCCCC[n+]1c(C)cc(N)c2ccccc21 . active

Write down the call the test reported for this compound. Item: COc1ccc(Cl)cc1C(=O)NCCc1ccc(S(=O)(=O)NC(=O)NC2CCCCC2)cc1 inactive

Hey, what did the test say about CCCCN(CCCC)CC(O)c1cc(Cl)cc2c1-c1ccc(Cl)cc1/C2=C/c1ccc(Cl)cc1 (configuration not stated) ? active

How did this test come out for CCn1cc(C(=O)O)c(=O)c2cnc(N3CCNCC3)nc21 ? inactive

# outcome recorded in this test, key = O=C(CCCN1CCN(c2ccccn2)CC1)c1ccc(F)cc1 inactive

For this compound, state the assay outcome: C[C@H](N)[C@H](O)c1cccc(O)c1 inactive

* * *

tested on: HEK293; test: Cytotoxic Profiling of Annotated Libraries Using Quantitative High-Throughput Screening (AID 1296008); conditions: Five cell lines viability, CellTiter-Glo ATP luminescence, 48-72 h; note: nearly all actives have a fitted effect of over 60% in size
Inconclusive results are not listed. Activity calls are given as the source filed them. Calls come from the whole dose curve; as a rule, active = well fitted inhibition curve with a large enough effect; inconclusive = small, poorly fitted or top-dose-only effect; inactive = flat fitted curve, though single readings scatter.
Respond only with the outcome that fits, drawn from yes (1) for active, no (0) for inactive

// return assay outcome for CS(=O)(=O)c1ccc([C@@H](O)[C@@H](CF)NC(=O)C(Cl)Cl)cc1 yes (1)

Status in this test for CC(=O)CCC(=O)O ? no (0)

# outcome recorded in this test, key = O=C(Oc1ccccc1C(=O)O)c1ccccc1O no (0)

Entry CCN(CC)C(=O)Nc1ccc(OCC(O)CNC(C)(C)C)c(C(C)=O)c1 (stereo unspecified) : call = ? no (0)

Recorded call for NC(CSCC(=O)O)C(=O)O (stereo unspecified) ? no (0)

Lab log entry: O=S(=O)(O)c1cc(I)c(O)c2ncccc12 — outcome as called in the assay? no (0)

* * *

system: UISO; assay: qHTS assay to identify novel small-molecules to repurpose for Merkel cell carcinoma treatment (AID 1296009); settings: MCC and control cell lines, CellTiter-Glo viability, 72 h; series mostly up to 46 µM; note: nearly all actives have a fitted effect of over 60% in size; note: potency is the fitted concentration of half-maximal effect
Records with an inconclusive call do not appear. Active and inactive are the calls of the source. Calls come from the whole dose curve; as a rule, active = well fitted inhibition curve with a large enough effect; inconclusive = small, poorly fitted or top-dose-only effect; inactive = flat fitted curve, though single readings scatter.
OBSERVATION TYPE: Potency

Check out these entries, answers already filled in.
>>> print(df.to_string())
                                   compound  measured_result
0     Cc1cc(CC(=O)O)n(C)c1C(=O)c1ccc(Cl)cc1         inactive
1                         CCCOC(=O)c1ccccc1         inactive
2  COc1ccc2c(c1)C(=O)N(CCc1ccc(S(=O)(=O)NC(=O)NC3CCCCC3)cc1)C(=O)C2(C)C         inactive
3                         C#CCN(C)Cc1ccccc1         inactive
4  C=Cc1c(C)c2cc3[nH]c(cc4nc(cc5nc(cc1[nH]2)C(C)=C5CCC(=O)O)C(CCC(=O)O)=C4C)c(C)c3C=C         inactive
5  NC(=O)c1ncn([C@@H]2O[C@H](CO)[C@@H](O)[C@H]2O)c1N         inactive

Reported Potency for UISO, given CC[N+](CC)(CC)CCOc1ccc(/C=C/c2ccccc2)cc1 ? 1.19 µM (active)

Please state recorded Potency (tested on UISO) of COc1ccc2[nH]c(S(=O)Cc3ncc(C)c(OC)c3C)nc2n1 (stereo unspecified) inactive

Given the entry CN1CCOC(c2ccccc2)c2ccccc2C1 (stereo unspecified) , what Potency was observed with UISO? inactive

State its Potency on UISO: Nc1nc2c(ncn2CCC(CO)CO)c(=O)[nH]1 inactive

Provide the documented Potency with UISO as the system for CC(C)c1c(C(=O)Nc2ccccc2)c(-c2ccccc2)c(-c2ccc(F)cc2)n1CC[C@@H](O)C[C@@H](O)CC(=O)O 10.6 µM (active)
